Target: Proto-oncogene tyrosine-protein kinase Src (Homo sapiens) (UniProt P12931)
Sequence (P12931 2-536 limits assumed): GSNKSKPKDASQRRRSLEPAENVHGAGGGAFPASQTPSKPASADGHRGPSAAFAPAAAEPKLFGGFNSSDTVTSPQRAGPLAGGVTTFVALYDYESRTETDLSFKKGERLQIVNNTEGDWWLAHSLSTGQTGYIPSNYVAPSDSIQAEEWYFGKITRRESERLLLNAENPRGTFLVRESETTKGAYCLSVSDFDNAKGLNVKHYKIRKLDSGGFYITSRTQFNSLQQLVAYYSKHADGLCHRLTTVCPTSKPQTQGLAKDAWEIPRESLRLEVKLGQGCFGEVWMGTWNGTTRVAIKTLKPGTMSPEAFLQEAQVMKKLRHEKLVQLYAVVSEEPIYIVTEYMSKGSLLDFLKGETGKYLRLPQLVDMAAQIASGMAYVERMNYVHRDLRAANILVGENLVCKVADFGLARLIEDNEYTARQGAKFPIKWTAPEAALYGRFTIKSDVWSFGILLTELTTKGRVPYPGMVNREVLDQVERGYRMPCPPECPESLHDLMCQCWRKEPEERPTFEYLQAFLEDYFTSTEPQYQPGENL
Settings: at 1 µM
Returns one of rule met or rule not met; rule met when inhibition is >= 20%.

compound: Fc1ccc(-c2ncn(C3CCNCC3)c2-c2ccnc(Oc3ccc4c(c3)OCO4)n2)cc1
target.entity: Proto-oncogene tyrosine-protein kinase Src (Homo sapiens) (UniProt P12931)
class.assignment: rule not met
//
compound: O=C(Nc1n[nH]c2nc(-c3ccco3)ccc12)C1CC1
target.entity: Proto-oncogene tyrosine-protein kinase Src (Homo sapiens) (UniProt P12931)
class.assignment: rule not met
//
compound: CCN(CC)Cc1ccc(Nc2nccc(-c3cnn4ncccc34)n2)cc1
target.entity: Proto-oncogene tyrosine-protein kinase Src (Homo sapiens) (UniProt P12931)
class.assignment: rule met
//
compound: NS(=O)(=O)c1ccc(Nc2cc(-c3ccc(O)c(F)c3)n[nH]2)cc1
target.entity: Proto-oncogene tyrosine-protein kinase Src (Homo sapiens) (UniProt P12931)
class.assignment: rule not met
//
compound: COc1cc(Nc2ncc3c(C)nc(-c4cccc(Oc5ccccc5)c4)n3n2)cc(OC)c1OC
target.entity: Proto-oncogene tyrosine-protein kinase Src (Homo sapiens) (UniProt P12931);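 further: each value is an averaged percent inhibition of SRC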
class.assignment: rule met

Quick check: does COc1cc(Nc2ncc3c(C)nc(-c4cccc(C(F)(F)F)c4)n3n2)cc(OC)c1OC have inhibition greater than or equal to 20%?
rule met

Quick check: does CNC(=O)c1cncc(/C=C/c2c(C)cccc2C)c1 have inhibition greater than or equal to 20%?
rule met

Quick check: does COc1cccc(-n2cnc3c(N/N=C/c4ccncc4)ncnc32)c1 have inhibition greater than or equal to 20%?
rule met

Quick check: does C/C(Nc1ccc(S(N)(=O)=O)cc1)=C1/C(=O)Nc2ccccc21 have inhibition greater than or equal to 20%?
rule not met

Quick check: does C[C@@H](Oc1cc(-n2cnc3ccc(OC4CCN(C)CC4)cc32)sc1C(N)=O)c1ccccc1Cl have inhibition greater than or equal to 20%?
rule not met

Quick check: does C#Cc1cccc(Nc2ncnc3ccc(OCCCCNCCS(C)(=O)=O)cc23)c1 have inhibition greater than or equal to 20%?
rule not met

Quick check: does COc1ccc2cc(-c3c(-c4ccncc4)nc(-c4ccc([S+](C)[O-])cc4C)n3C)ccc2c1 (stereo unspecified) have inhibition greater than or equal to 20%?
rule not met

Quick check: does Fc1ccc(-c2ncn(CCCN3CCOCC3)c2-c2ccncc2)cc1 have inhibition greater than or equal to 20%?
rule not met

Quick check: does CS(=O)(=O)CCNCc1cc(-c2cc3c(Nc4ccc(OCc5cccc(F)c5)c(Cl)c4)ncnc3s2)cs1 have inhibition greater than or equal to 20%?
rule not met

Quick check: does O=C(Nc1n[nH]c2cc(-c3ccccc3)ccc12)C1CC1 have inhibition greater than or equal to 20%?
rule not met

Quick check: does CCS(=O)(=O)c1ccc(OC)c(Nc2ncc(-c3ccccc3Cl)o2)c1 have inhibition greater than or equal to 20%?
rule met

Quick check: does Fc1ccc(-c2ncn(C3CCNCC3)c2-c2ccnc(Oc3ccc(Oc4ccccc4)cc3)n2)cc1 have inhibition greater than or equal to 20%?
rule not met

Quick check: does NC(=O)c1cc(-c2ccc(F)cc2)cc(-c2ccncc2)c1N have inhibition greater than or equal to 20%?
rule not met

Quick check: does Cc1ccc(C(=O)NC(C)C)cc1-c1ccc(C(=O)NCC2CC2)cc1 have inhibition greater than or equal to 20%?
rule not met

Quick check: does NC(=O)c1cc(-c2ccncc2)cc(-c2ccccc2)c1N have inhibition greater than or equal to 20%?
rule met

Quick check: does Cc1nnc(-c2ccc(C)c(-c3ccc(C(=O)NCc4ccc(Cl)cc4)cc3)c2)o1 have inhibition greater than or equal to 20%?
rule not met
